Biological target: human FUT7 (Homo sapiens)
Test: Inhibition of FUT7 measured by HPLC quantification of produced GDP
Assay type: biochemical
Details: FUT7 1 μg/ml, read-out: IC50 value, inhibitory activity on FUT7
pIC50: −log10 of the molar value.
Reported metric: pIC50

Qu. Look up pIC50 with human FUT7 (Homo sapiens) for this molecule: O=C(O)c1cc(O)c(O)c(O)c1 [gallic acid]
Ans. ~5.00

* * *

Target: human FUT7 (Homo sapiens, UniProt Q11130)
Sequence (Q11130 1-342): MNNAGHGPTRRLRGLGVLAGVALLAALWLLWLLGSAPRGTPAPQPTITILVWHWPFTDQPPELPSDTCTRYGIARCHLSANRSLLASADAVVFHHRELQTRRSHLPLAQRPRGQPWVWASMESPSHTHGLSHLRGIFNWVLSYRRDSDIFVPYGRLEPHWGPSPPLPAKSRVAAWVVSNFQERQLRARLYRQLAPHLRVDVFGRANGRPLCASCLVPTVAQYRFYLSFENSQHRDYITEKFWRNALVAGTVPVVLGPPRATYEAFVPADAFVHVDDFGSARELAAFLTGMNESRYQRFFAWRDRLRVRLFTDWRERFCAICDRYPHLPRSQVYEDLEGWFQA
Test: Inhibition of FUT7 measured by the enzymatic coupling fluorescence method of the invention
Assay type: biochemical
Settings: method of the present invention, FUT7 1 μg/ml; read-out: IC50 value, inhibitory activity on FUT7
pIC50: −log10 of the molar value.
Reported metric: pIC50

Qu. Item under review: O=C(O)c1cc(O)c(O)c(O)c1 . Reported pIC50?
Ans. ~5.00

These entries and their values trace back to patent US20160289728A1.
